Hey, just so you know, these numbers are from paper doi:10.1101/2022.07.22.501140.

# TARGET_DESC: XlBicc1 N-term (KH1-KH3) (Xenopus laevis, UniProt A0A1L8FE49 1-506)
# PROCEDURE_SUMMARY: fluorescence polarization
pKd: −log10 of the molar value.
READOUT_LABEL: pKd

Report pKd for CUUAUUAGACACGUUGUCGCGAAACAGCUCC (structured_RNA) [Cripto-1 loop variant] please.
~4.92
